Assay: logP by HPLC on reversed-phase columns (C 18), EEC directive 79/831 Annex V.A8
Assay type: physicochemical
Details: acidic range, pH 2.3, 0.1% aqueous phosphoric acid and acetonitrile
Marks after values point to notes of the source that are not given here.
recorded-metric: log P (*)

Answered examples (4):
# compound, log P (*)
records = [
    ("CC(=O)N1CCCCC1=Nc1nc(-c2ccc(Cl)cc2)cs1 [compound 34]", "3.78**; 3.78***; 3.78*"),
    ("Clc1ccccc1Cc1csc(N=C2CCCCN2)n1 [compound 69]", "1.39*"),
    ("Clc1ccc(Oc2ccccc2-c2csc(N=C3CCCCN3)n2)cc1 [compound 74]", "2.03*"),
    ("CC(=O)N1CCCCC1=Nc1nc(-c2cccc(F)c2F)c(C)s1 [compound 43]", "3.37**; 3.37***; 3.37*"),
]

In the following, a different compound is considered.
### Prompt For Fc1ccc(Oc2ccccc2-c2csc(N=C3CCCN3)n2)c(F)c1 [compound 102] , write its log P (*).
### Response 1.98

====

Assay: logP by HPLC on reversed-phase columns (C 18), EEC directive 79/831 Annex V.A8
Type: physicochemical
Settings: LC-MS, acidic range, pH 2.7, 0.1% aqueous formic acid and acetonitrile
Protocol: Calibration was carried out using unbranched alkan-2-ones (having from 3 to 16 carbon atoms) with known logP values (the logP values were determined by the retention times using linear interpolation between two successive alkanones).
Marks after values point to notes of the source that are not given here.
recorded-metric: log P (**)

Solved cases below.
# compound, result
rows = [
    ("CC(=O)N1CCCCC1=Nc1nc(-c2ccc(F)c(Cl)c2)cs1", "3.88**; 3.88***; 3.88*"),
    ("CC(=O)N1CCCCC1=Nc1nc(-c2ccc(Cl)cc2)cs1", "3.78**; 3.78***; 3.78*"),
    ("Clc1ccc(-c2csc(N=C3CCCN3)n2)cc1", "1.57**"),
    ("CC(=O)N1CCCCC1=Nc1nc(-c2cccc(F)c2F)c(C)s1", "3.37**; 3.37***; 3.37*"),
    ("Clc1ccc(-c2csc(N=C3CCCCN3)n2)cc1 [compound 2]", "1.7**"),
]

### Prompt Please give measured log P (**) of the following entry: FC(F)(F)c1cccc(-c2csc(N=C3CCCCN3)n2)c1 [compound 105]
### Response 1.75**

====

Below: a set of entries, each annotated with reported log P (*).
Assay: logP by HPLC on reversed-phase columns (C 18), EEC directive 79/831 Annex V.A8
Type: physicochemical
Conditions: acidic range, pH 2.3, 0.1% aqueous phosphoric acid and acetonitrile
Marks after values point to notes of the source that are not given here.

# compound, result
measured = [
    ("Fc1ccc(-c2csc(N=C3CCCCN3)n2)cc1 [compound 54]", "1.23*"),
    ("Cc1cccc(-c2csc(N=C3CCCCN3)n2)c1 [compound 60]", "1.32*"),
]

Now for the compound whose log P (*) we want.
### Prompt # return recorded log P (*) for input Fc1cccc(Oc2ccccc2-c2csc(N=C3CCCCN3)n2)c1 [compound 83]
### Response 1.95*

====

Test: logP by HPLC on reversed-phase columns (C 18), EEC directive 79/831 Annex V.A8
Format: physicochemical
Conditions: acidic range, pH 2.3, 0.1% aqueous phosphoric acid and acetonitrile
Marks after values point to notes of the source that are not given here.
recorded-metric: log P (*)

See these solved cases before continuing.
# sample-smiles, log P (*)
data = [
    ("Fc1ccc(Oc2ccccc2-c2csc(N=C3CCCCN3)n2)cc1", "1.87*"),
    ("CC(=O)N1CCCCC1=Nc1nc(-c2cccc(F)c2F)cs1", "3.63**; 3.63***; 3.63*"),
    ("Brc1ccc(Oc2ccccc2-c2csc(N=C3CCCCN3)n2)cc1", "2.14*"),
]

Turning to the following compound.
### Prompt Please give the documented log P (*) of "Clc1ncccc1-c1csc(N=C2CCCCN2)n1"
### Response 0.71*

The reported measurements were obtained from patent US20110053770A1.
